tested on: SRPK3; conditions: concentration: 1 μM, replicates: in singlicate; n = 1;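 further: KINOMEscan kinase panel screen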
Assign labels as follows, please: YES for %Inh below 20%; NO for %Inh equal to or exceeding 20%.

compound="O=C(Nc1n[nH]c2cc(-c3ccccc3F)ccc12)C1CC1 [SB-733371]" label_value=NO
compound=CCc1ccc(-c2ccc3c(c2)-c2nn(C)cc2S(=O)(=O)N3C)cc1 label_value=YES
compound="CN1C(=O)C(Nc2cc(Cl)c(O)c(Cl)c2)=C(c2ccc(Cl)cc2)C1=O [SB-404321]" label_value=NO
compound=Cc1ccc(Oc2ccc(Nc3ncnc4cc[nH]c34)cc2C)cn1 label_value=YES
compound=CCc1nc(-c2cccc(C)c2)c(-c2ccncc2)s1 label_value=YES
compound="Cc1cccc(-c2nc(Nc3ccc4c(cnn4C)c3)c3ccccc3n2)n1 [GW876731]" label_value=YES
compound="Cl.c1ccc(Cn2cnc3cc(Nc4ncnc5ccccc45)ccc32)cc1 [GW272142]" label_value=YES
compound=COC(=O)c1c(-c2ccccc2)c2cc(Br)ccc2c(=O)n1Cc1ccc(S(C)(=O)=O)cc1 label_value=YES
compound=COc1ccc(-c2cc3c(C)nc(N)nc3n([C@H]3CC[C@H](O)CC3)c2=O)cn1 label_value=YES

###

tested on: RIOK1; details: concentration: 1 μM, replicates: in singlicate; n = 1
readout-type: %Inh (%)

compound="COc1ccc(CNC(=O)NC2CCN(c3ccnc(Nc4ccc(F)cc4)n3)C2)cc1 (centres unmarked) [GSK1379706]" target_of_assay=RIOK1 units_text=% result=8
compound="COc1cc2nccc(Nc3ccc(OCc4ccc(NC(C)=O)cc4)cc3)c2cc1OC.Cl [GW440135]" target_of_assay=RIOK1 units_text=% result=0
compound="CCCC(=O)Nc1n[nH]c2ncc(-c3cccc4ccccc34)cc12 [SB-642057]" target_of_assay=RIOK1 units_text=% result=19
compound="COc1ccc(-n2cnc3c(N)ncnc32)cc1 [SKF-97236]" target_of_assay=RIOK1 units_text=% result=14
compound=CC(C)(C)c1ccc(C(=O)Nc2cn3cc(-c4ccccc4)ccc3n2)cc1 target_of_assay=RIOK1 units_text=% result=2

###

system: BUB1; conditions: concentration: 1 μM, replicates: in singlicate; n = 1
readout-type: %Inh

compound="Cc1nn2c(=O)cc(N3CCOCC3)nc2n1Cc1cccc(Cl)c1Cl [GSK2342769]" result=12%
compound="COc1cc2nccc(Nc3ccc(OCc4ccc(NC(C)=O)cc4)cc3)c2cc1OC.Cl [GW440135]" result=46%
compound="COc1cc2ncn(-c3cc(OCc4ccncc4Br)c(C(N)=O)s3)c2cc1OC [GW854278]" result=0%
compound="Nc1n[nH]c2ncc(-c3ccccc3)cc12 [SB-517081]" result=34%
compound="CN1C(=O)C(Nc2cc(Cl)c(O)c(Cl)c2)=C(c2ccc(Cl)cc2)C1=O [SB-404321]" result=12%
compound="COc1cccc(C2=C(Nc3cccc(C(=O)O)c3)C(=O)NC2=O)c1 [SB-390770]" result=8%
compound="CCCC(=O)Nc1n[nH]c2ncc(-c3cccc4ccccc34)cc12 [SB-642057]" result=35%
compound="C[C@@H]1CC[C@H](C(=O)NC2CCCCC2)CN1c1cc(-c2ccc3c(N)n[nH]c3c2)nc(N)n1 [GSK2291363]" result=48%
compound="COc1ccc(-n2cnc3c(N)ncnc32)cc1 [SKF-97236]" result=4%

###

test system: EPHA1; settings: concentration: 1 μM, replicates: in singlicate; n = 1
readout-type: %Inh (%)

molecule=CCC(=O)c1c(-c2ccccc2)c2cc(Cl)ccc2c(=O)n1Cc1cc(C(=O)NC2CC2)n(C)n1 readout_type=%Inh result=4
molecule=O=C(Nc1n[nH]c2nc(-c3ccccc3)c(Br)cc12)C1CC1 readout_type=%Inh result=23
molecule=O=C(NCc1cccs1)c1cc(C(=O)c2c(Cl)cccc2Cl)c[nH]1 readout_type=%Inh result=0
molecule="Cc1nnc(-c2ccc3ncn(-c4ccc(S(C)=O)cc4)c3c2)o1 (centres unmarked)" readout_type=%Inh result=0
molecule=Cl.NS(=O)(=O)c1cccc(Nc2cc(-c3ccc(F)cc3)n[nH]2)c1 readout_type=%Inh result=0
molecule=COc1cc2nccc(Nc3ccc(OCc4ccc(NC(C)=O)cc4)cc3)c2cc1OC.Cl readout_type=%Inh result=19
molecule=O=C(Nc1n[nH]c2cc(-c3ccccc3F)ccc12)C1CC1 readout_type=%Inh result=22
molecule=COc1cc(Nc2ccnc3ccc(C(F)(F)F)cc23)cc(OC)c1OC readout_type=%Inh result=61
molecule=Nc1n[nH]c2ncc(-c3ccccc3)cc12 readout_type=%Inh result=0
molecule=CCS(=O)(=O)c1ccc(OC)c(Nc2ncc(-c3ccc(F)cc3)o2)c1.Cl readout_type=%Inh result=0
molecule=CCCC(=O)Nc1n[nH]c2ncc(-c3cccc4ccccc34)cc12 readout_type=%Inh result=0

###

As shown below, each of these molecules has a reported %Inh value.
tested on: MAPKAPK5; conditions: concentration: 1 μM, replicates: in singlicate; n = 1
readout-type: %Inh

molecule=OCCCNc1nccc(-c2c(-c3cccc(C(F)(F)F)c3)nn3cc(C(F)(F)F)ccc23)n1 result=0%
molecule=COc1ccc(-c2coc3ccc(-c4nnc(SCc5cccc(C#N)c5)o4)cc23)cc1 result=18%
molecule=Nc1ncnc2c1ncn2-c1cccc2ccccc12 result=0%
molecule=Cc1nc(N(C)[C@H]2CN(C(=O)CC#N)CC[C@H]2C)c2cc[nH]c2n1 result=10%
molecule=CCc1nc(-c2cccc(C)c2)c(-c2ccncc2)s1 result=0%
molecule=Cn1c(=O)c(F)c(Nc2ccc(I)cc2F)c2c(=O)n(OC[C@H](O)CO)cnc21 result=0%
molecule=Nc1n[nH]c2nnc(-c3ccccc3)c(-c3ccccc3)c12 result=0%
molecule=COc1cccc(C2=C(N(C)c3ccccc3)C(=O)NC2=O)c1 result=0%
molecule=O=C(NCCNc1ccnc(Nc2ccc(F)cc2)n1)Nc1ccc2c(c1)OCO2 result=0%
molecule=Cc1cccc(-c2cc(-c3c[nH]nc3-c3ccccn3)ccn2)c1 result=0%
molecule=COc1cc2nccc(Nc3ccc(OCc4ccc(NC(C)=O)cc4)cc3)c2cc1OC.Cl result=0%
molecule="COc1ccc(CNC(=O)NC2CCN(c3ccnc(Nc4ccc(F)cc4)n3)C2)cc1 (stereo not shown)" result=2%
molecule=CCCC(=O)Nc1n[nH]c2ncc(-c3cccc4ccccc34)cc12 result=0%
molecule="COc1cc(Nc2nccc(N3CCC(NC(=O)C(C)c4ccc(Cl)cc4)C3)n2)cc(OC)c1OC (stereo not shown)" result=0%
molecule=Nc1nc(N)c2nc(-c3ccccc3)[nH]c2n1 result=5%
molecule=C[C@@H]1CC[C@H](C(=O)NC2CCCCC2)CN1c1cc(-c2ccc3c(N)n[nH]c3c2)nc(N)n1 result=0%
molecule=CCC(=O)c1c(-c2ccccc2)c2cc(Cl)ccc2c(=O)n1Cc1ccc(C(=O)O)cc1 result=17%
molecule=COc1cc(OC)cc(-c2cc3cnc(N)nc3nc2NC(=O)NC(C)(C)C)c1 result=0%
molecule=Nc1nccc2scc(-c3ccc4c(c3)CCN4C(=O)Cc3ccccc3)c12 result=0%
molecule=Nc1ncnc2c1ncn2-c1ccc(Cl)cc1 result=0%
molecule=COc1cc2ncn(-c3cc(OCc4ccncc4Br)c(C(N)=O)s3)c2cc1OC result=0%
molecule=Nc1ncnc2c1ncn2-c1cccc(F)c1 result=39%
molecule=Nc1nc(-c2ccccc2F)c(-c2ccnc3ccccc23)s1 result=0%
molecule=Cc1cccc(-c2nc(Nc3ccc4c(cnn4C)c3)c3ccccc3n2)n1 result=0%
molecule=O=C(NCc1cccs1)c1cc(C(=O)c2c(Cl)cccc2Cl)c[nH]1 result=0%
molecule=COc1ccc(-c2cc3c(C)nc(N)nc3n([C@H]3CC[C@H](OCCO)CC3)c2=O)cn1 result=0%
molecule=Fc1cccc(CSc2nnc(-c3ccc4c(c3)CCO4)o2)c1 result=16%
molecule=O=C(Nc1n[nH]c2cc(-c3ccccc3F)ccc12)C1CC1 result=10%
molecule=COC(=O)c1c(-c2ccccc2)c2cc(C)ccc2c(=O)n1Cc1ccccc1 result=0%
molecule=CN(C)c1cc(-c2ccc3c(N)n[nH]c3c2)nc(N)n1 result=0%
molecule=Cl.c1ccc(Cn2cnc3cc(Nc4ncnc5ccccc45)ccc32)cc1 result=0%

###

tested on: TLK2; details: concentration: 1 μM, replicates: in singlicate; n = 1
As shown below, each of these molecules has a reported %Inh value.
readout-type: %Inh

molecule=COC(=O)c1c(-c2ccccc2)c2cc(C)ccc2c(=O)n1Cc1ccccc1 readout_type=%Inh result=0%
molecule="Cc1nnc(-c2ccc3ncn(-c4ccc(S(C)=O)cc4)c3c2)o1 (centres unmarked)" readout_type=%Inh result=0%
molecule=COc1ccc(-c2cc3c(C)nc(N)nc3n([C@H]3CC[C@H](O)CC3)c2=O)cn1 readout_type=%Inh result=0%
molecule=COc1cc(Nc2ccnc3ccc(C(F)(F)F)cc23)cc(OC)c1OC readout_type=%Inh result=0%
molecule=O=C(Nc1n[nH]c2cc(-c3ccccc3F)ccc12)C1CC1 readout_type=%Inh result=0%
molecule=Nc1n[nH]c2nnc(-c3ccccc3)c(-c3ccccc3)c12 readout_type=%Inh result=0%
molecule=Cc1ccccc1COc1cc(-n2cnc3cc(Cl)ccc32)sc1C(N)=O readout_type=%Inh result=0%
molecule=Cc1ccc(-c2ccc3c(ccc4sc5c(c43)NC[C@@H](C)N=C5N(C)C)n2)cn1 readout_type=%Inh result=0%
molecule=COc1cc2ncn(-c3cc(OCc4ccc(S(C)(=O)=O)cc4)c(C(N)=O)s3)c2cc1OC readout_type=%Inh result=0%
molecule=CCc1nc(-c2cccc(C)c2)c(-c2ccncc2)s1 readout_type=%Inh result=0%
molecule=Cc1cc(Nc2nc(-c3cccc(C)n3)nc3ccccc23)ccn1 readout_type=%Inh result=15%
molecule=COc1cccc(-n2cnc3c(N)ncnc32)c1 readout_type=%Inh result=19%
molecule=CCn1c(-c2ccoc2)nc2cnccc21 readout_type=%Inh result=0%
molecule=COc1ccc(-n2cnc3c(N)ncnc32)cc1 readout_type=%Inh result=0%
molecule=O=C(NCCNc1ccnc(Nc2ccc(F)cc2)n1)Nc1ccc2c(c1)OCO2 readout_type=%Inh result=20%
molecule=COC(=O)c1c(-c2ccccc2)c2cc(Br)ccc2c(=O)n1Cc1ccc(S(C)(=O)=O)cc1 readout_type=%Inh result=0%
molecule=Cc1c(Cn2c(C)nn3c(=O)cc(N4CCO[C@H](C)C4)nc23)cccc1C(F)(F)F readout_type=%Inh result=0%
molecule=COc1cccc(C2=C(Nc3cccc(C(=O)O)c3)C(=O)NC2=O)c1 readout_type=%Inh result=0%
molecule=O=C1NC(=O)C(c2ccccc2)=C1Nc1cccc(O)c1 readout_type=%Inh result=98.4%
molecule=COC(=O)c1c(-c2ccccc2)c2cc(Br)ccc2c(=O)n1Cc1ccc(NC(=O)CCC(=O)O)cc1 readout_type=%Inh result=0%
molecule=Fc1cccc(CSc2nnc(-c3ccc4c(c3)CCO4)o2)c1 readout_type=%Inh result=12%
molecule=Cc1cccc(-c2nc(Nc3ccc4c(cnn4C)c3)c3ccccc3n2)n1 readout_type=%Inh result=11%
molecule=CCCNC(=O)Nc1ccc(Oc2ncnc3ccn(C)c23)cc1 readout_type=%Inh result=0%
molecule=Cc1nn2c(=O)cc(N3CCOCC3)nc2n1Cc1cccc(Cl)c1Cl readout_type=%Inh result=0%
molecule=O=C(NCc1cccs1)c1cc(C(=O)c2c(Cl)cccc2Cl)c[nH]1 readout_type=%Inh result=0%
molecule=CC(C)(C)c1ccc(C(=O)Nc2cn3cc(-c4ccccc4)ccc3n2)cc1 readout_type=%Inh result=0%
molecule=Nc1nc(N)c2nc(-c3ccccc3)[nH]c2n1 readout_type=%Inh result=0%
molecule=CCc1ccc(-c2ccc3c(c2)-c2nn(C)cc2S(=O)(=O)N3C)cc1 readout_type=%Inh result=0%
molecule=COc1cccc(C2=C(N(C)c3ccccc3)C(=O)NC2=O)c1 readout_type=%Inh result=4%
molecule="COc1ccc(Nc2nccc(N3CCC(NS(=O)(=O)c4ccc(NC(C)=O)cc4)C3)n2)cc1 (centres unmarked)" readout_type=%Inh result=0%
molecule=CCC(=O)c1c(-c2ccccc2)c2cc(Cl)ccc2c(=O)n1Cc1ccc(C(=O)O)cc1 readout_type=%Inh result=0%
molecule=CN(C)c1cc(-c2ccc3c(N)n[nH]c3c2)nc(N)n1 readout_type=%Inh result=0%
molecule=Cl.NS(=O)(=O)c1cccc(Nc2cc(-c3ccc(F)cc3)n[nH]2)c1 readout_type=%Inh result=0%
molecule=COc1cc2ncn(-c3cc(OCc4ccncc4)c(C(N)=O)s3)c2cc1OC readout_type=%Inh result=0%
molecule=Nc1ncnc2c1ncn2-c1cccc(F)c1 readout_type=%Inh result=0%
molecule=COc1cc2nccc(Nc3ccc(OCc4ccc(NC(C)=O)cc4)cc3)c2cc1OC.Cl readout_type=%Inh result=0%
molecule=Cl.c1ccc(Cn2cnc3cc(Nc4ncnc5ccccc45)ccc32)cc1 readout_type=%Inh result=0%
molecule=CCC(=O)c1c(-c2ccccc2)c2cc(Cl)ccc2c(=O)n1Cc1cc(C(=O)NC2CC2)n(C)n1 readout_type=%Inh result=0%
